Answer each item with its documented MIC80.
Tested on: Candida albicans
Assay notes: Antifungal activity against Candida albicans after 24 hrs by serial dilution method
Type: functional
Write it as a number; the unit µg/mL goes unstated.

[Q] What is its MIC80 for Candida albicans? Entry: Cc1cccc(CON=C2CCN(CC(O)(Cn3cncn3)c3ccc(F)cc3F)CC2)c1 (racemic)
[A] 16

[Q] What is its MIC80 for Candida albicans? Entry: OC(CN1CCC(=NOCc2cccc(Br)c2)CC1)(Cn1cncn1)c1ccc(F)cc1F (racemic)
[A] 0.016

[Q] What is its MIC80 for Candida albicans? Entry: OC(CN1CCC(=NOCc2ccccc2Br)CC1)(Cn1cncn1)c1ccc(F)cc1F (racemic)
[A] 0.016

[Q] What is its MIC80 for Candida albicans? Entry: O=[N+]([O-])c1ccc(CON=C2CCN(CC(O)(Cn3cncn3)c3ccc(F)cc3F)CC2)cc1 (racemic)
[A] 0.016

[Q] What is its MIC80 for Candida albicans? Entry: Cc1ccccc1CON=C1CCN(CC(O)(Cn2cncn2)c2ccc(F)cc2F)CC1 (racemic)
[A] 16

[Q] What is its MIC80 for Candida albicans? Entry: OC(CN1CCC(=NOCc2ccc(Cl)cc2)CC1)(Cn1cncn1)c1ccc(F)cc1F (racemic)
[A] 0.0625

[Q] What is its MIC80 for Candida albicans? Entry: COc1ccc(CON=C2CCN(CC(O)(Cn3cncn3)c3ccc(F)cc3F)CC2)cc1 (racemic)
[A] 1

[Q] What is its MIC80 for Candida albicans? Entry: OC(CN1CCC(=NOCc2cccc(F)c2)CC1)(Cn1cncn1)c1ccc(F)cc1F (racemic)
[A] 0.016

[Q] What is its MIC80 for Candida albicans? Entry: ON=C1CCN(CC(O)(Cn2cncn2)c2ccc(F)cc2F)CC1 (stereo not drawn)
[A] 1

[Q] What is its MIC80 for Candida albicans? Entry: OC(CN1CCC(=NOCc2ccc(F)cc2)CC1)(Cn1cncn1)c1ccc(F)cc1F (racemic)
[A] 0.016

[Q] What is its MIC80 for Candida albicans? Entry: OC(CN1CCC(=NOCc2ccc(Br)cc2)CC1)(Cn1cncn1)c1ccc(F)cc1F (racemic)
[A] 0.016

[Q] What is its MIC80 for Candida albicans? Entry: OC(CN1CCC(=NOCc2ccc3ccccc3c2)CC1)(Cn1cncn1)c1ccc(F)cc1F (racemic)
[A] 0.016

[Q] What is its MIC80 for Candida albicans? Entry: O=[N+]([O-])c1cccc(CON=C2CCN(CC(O)(Cn3cncn3)c3ccc(F)cc3F)CC2)c1 (racemic)
[A] 1
